Data origin, for the record: the supplement of paper PMC10065799

Test system: c-Abl (mouse);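 note: frequency after pTyr selection over input frequency; kinase dosed for 20-30% of maximal phosphorylation in three min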
Experiment: phosphorylation enrichment, bacterial display (enrichment ratio); higher = better substrate or ligand; peptides without Tyr show the background
Measured phosphorylation enrichment, listed per entry for reference.
# answer = number (no unit)

Q: Could you share what phosphorylation enrichment was measured for LIHLHYIRKDF [BBS4_Y43_YF] , tested on c-Abl (mouse)?;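 note: 11-residue human phosphosite peptides and single-mutation variants displayed on the E. coli surface, counted by deep sequencing, each peptide's frequency after selection divided by its frequency in the unselected input library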;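 note: frequency after pTyr selection over input frequency; kinase dosed for 20-30% of maximal phosphorylation in three min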
A: 0.612

Q: Now the same for QKMADYSNKLF [PDPR_Y104_YF]
A: 1.26

Q: Next record, please: LEQQKYTVTVD [IKBKB_Y199]
A: 0.634

Q: Note, next up: GSTLSYGRDGR [MATR3_Y158_P154S]
A: 0.392

Q: Consider next the sequence LNEAVYTKMMT [G6PD_Y401_P396L] in the same way.
A: 0.881

Q: Please give the result for EACPSYSHVVL [CHST6_Y168_R166P] too.
A: 0.54

Q: Same thing, different sequence: ADGLEYPRTGL [MMUT_Y287_S288P]
A: 0.528

Q: Lookup CEHRGCLYLAI [TEK_Y897_Y897C]
A: 0.671

Q: Okay, and FSAPNYCFRCG [PPP2CA_Y265_YF] ?
A: 0.416

Q: What do you have for VDASYYGGRGV [ANTXR2_Y381] ?
A: 0.698

Q: // query: AQPHTYEEPGR [EPHA8_Y616_E612Q]
A: 0.465

Q: Now this one: KDIENYIQDGK [RAD50_Y964]
A: 0.639
